Kindly state Population Fragmented Nuclei (%) for each of the entries shown.
# System: U2OS
# measurement protocol: Multiplex assay against U2OS
# Format: toxicity, cell-based
# setup conditions: human, 24 h, 1 µM, compound concentration 1 uM, replicate 1
Value expressed in %; do not type the unit.

What Population Fragmented Nuclei (%) value was documented for this compound, `Cl.NC[C@@H]1O[C@H](C23CC4CC(CC(C4)C2)C3)Cc2c1ccc(O)c2O` ? 11

Population Fragmented Nuclei (%) for `Oc1cccc(-c2nc(N3CCOCC3)c3oc4ncccc4c3n2)c1` ? 21

Look up Population Fragmented Nuclei (%) for this compound: `CCCCN(CC)c1nc(C)nc2c1c(C)cn2-c1c(C)cc(C)cc1C.Cl` 7

Quick one: Population Fragmented Nuclei (%) for `CC(/C=C1\SC(=S)N(CCCC(=O)Nc2ccc(C(=O)O)c(O)c2)C1=O)=C\c1ccccc1` ? 6

Return reported Population Fragmented Nuclei (%); argument: `Cc1ccc(NC(=O)Nc2cc(C(F)(F)F)ccc2F)cc1Nc1ccc2c(c1)NC(=O)/C2=C\c1ccc[nH]1` 14

Recorded Population Fragmented Nuclei (%) for `Cc1c(P(=S)(c2ccccc2)c2ccccc2)n2ccccc2[n+]1C/C=C/c1ccccc1.[Br-]` , please? 12

Query (compound): CN1C(=O)[C@@H](NC(=O)c2cc3ccccc3[nH]2)N=C(c2ccccc2)c2ccccc21 [DEVAZEPIDE] ; field requested: Population Fragmented Nuclei (%) 10

Looking for the measured Population Fragmented Nuclei (%) of `c1ccc(-c2oc3ncnc(NC[C@@H]4CCCO4)c3c2-c2ccccc2)cc1` , can you help? 6

Look at this compound and give its reported Population Fragmented Nuclei (%). `CC[C@@H]1C(=O)N(C)c2cnc(Nc3ccc(C(=O)NC4CCN(C)CC4)cc3OC)nc2N1C1CCCC1` 17

# Population Fragmented Nuclei (%) lookup, item `CC(C)c1cc(Nc2nc(N3CCC[C@H](N)C3)ncc2C(N)=O)cc(C(C)C)n1` 9

Param item = `CCCc1cc(C)[nH]c(=O)c1CNC(=O)c1cc(-c2ccc(N3CCN(C(C)C)CC3)nc2)cc2c1cnn2C(C)C` ; retrieve measured Population Fragmented Nuclei (%). 18

Fill blank: measured Population Fragmented Nuclei (%) of the compound `Cc1c(Nc2ccc(S(=O)(=O)N3CCN(C)CC3)cc2F)nc2ccc(Nc3cnn(C4CC4)c3)cn2c1=O` is ____. 10

// Population Fragmented Nuclei (%) lookup, key: `CCOc1ccn(-c2ccc(F)cc2)c(=O)c1C(=O)Nc1ccc(Oc2ccnc(N)c2Cl)c(F)c1` 7

Using the record for `CCOC(=O)CCNc1cc(N2CCc3ccccc3CC2)nc(-c2ccccn2)n1` , report its Population Fragmented Nuclei (%). 5

Record request: Population Fragmented Nuclei (%) value, item `N#CCNC(=O)c1ccc(-c2ccnc(Nc3ccc(N4CCOCC4)cc3)n2)cc1` 14

====

# Tested on: U2OS
# measurement protocol: Multiplex assay against U2OS
# Format: toxicity, cell-based
# setup conditions: human, 48 h, 10 µM, compound concentration 10 uM, replicate 2
# strict inequality: Total Cell Count < 80 yields t, everything else yields f

is_below(Total Cell Count, 80) for `Cc1c(P(=S)(c2ccccc2)c2ccccc2)n2ccccc2[n+]1C/C=C/c1ccccc1.[Br-]` ? f

For N#CCNC(=O)c1ccc(-c2ccnc(Nc3ccc(N4CCOCC4)cc3)n2)cc1 [MOMELOTINIB] , is the recorded Total Cell Count below the cut-off of 80? t

Hello, I'm reviewing records and need to know if Total Cell Count of Oc1cccc(-c2nc(N3CCOCC3)c3oc4ncccc4c3n2)c1 [PI-103] is below 80. Could you check? f

API: query returns whether the compound falls strictly under 80 in Total Cell Count. Query: `Cc1ccc(S(=O)(=O)NC2c3ccccc3Oc3ccccc32)cc1` f

# TODO verify Total Cell Count < 80 strictly for this compound: C[C@@H](Oc1cc(-n2cnc3ccc(CN4CCN(C)CC4)cc32)sc1C(N)=O)c1ccccc1C(F)(F)F [GSK-461364] f

Record `CC(/C=C1\SC(=S)N(CCCC(=O)Nc2ccc(C(=O)O)c(O)c2)C1=O)=C\c1ccccc1` : is its Total Cell Count strictly below 80? f

Could you please tell me whether Total Cell Count recorded for `Cc1c(Nc2ccc(S(=O)(=O)N3CCN(C)CC3)cc2F)nc2ccc(-c3cnn(C4CC4)c3)cn2c1=O` is less than 80? t

Dear colleague, could you confirm whether Total Cell Count of `CC(C)c1cc(Nc2nc(N3CCC[C@H](N)C3)ncc2C(N)=O)cc(C(C)C)n1` falls below 80? Thanks. t

Given CC(C)[C@H](CO)Nc1nc(Nc2cccc(Cl)c2)c2ncn(C(C)C)c2n1 [PURVALANOLA] , is recorded Total Cell Count strictly lower than 80? f

I'd appreciate it if you could check whether `CN(c1cc(C(F)(F)F)nc(OCCC(=O)O)n1)c1cccc2c1CCC2` has Total Cell Count smaller than 80. f
